# Test Details: Percent protonated (RNH+) and unprotonated (RN) amine form of local anesthetics as a function of pH
# Format: physicochemical
# Condition Info: pH 7.4, unprotonated form
Readout Kind: % RN at pH 7.4 (%)
Write it as a number; the unit % goes unstated.

// solved cases for % RN at pH 7.4 follow
[[record]]
compound = "CCN(CC)CC(=O)Nc1c(C)cccc1C"
value_measured = 24.03

[[record]]
compound = "CCCN(CC)C(CC)C(=O)Nc1c(C)cccc1C (stereo not drawn)"
value_measured = 33.39

[[record]]
compound = "CCN(CC)CCOC(=O)c1ccc(N)cc1Cl"
value_measured = 4.77

[[record]]
compound = "CCCN1CCCC[C@H]1C(=O)Nc1c(C)cccc1C"
value_measured = 16.63

[[record]]
compound = "CCCNC(C)C(=O)Nc1ccccc1C (stereo not drawn)"
value_measured = 24.03

[[record]]
compound = "CCN(CC)CCOC(=O)c1ccc(N)cc1"
value_measured = 3.07

[[record]]
compound = "CCCCNc1ccc(C(=O)OCCN(C)C)cc1"
value_measured = 13.68

[[record]]
compound = "CCOC(=O)c1ccc(N)cc1"
value_measured = 100.00

[[record]]
compound = "Cc1cccc(C)c1NC(=O)C1CCCCN1C (stereo not drawn) [Mepivacaine]"
value_measured = 38.69

[[record]]
compound = "CCCCOc1cc(C(=O)NCCN(CC)CC)c2ccccc2n1"
value_measured = 3.83


Indicate the recorded % RN at pH 7.4 value for this compound: CCCNC(C)C(=O)Nc1c(C)csc1C(=O)OC (stereo not drawn)
28.47

Indicate the recorded % RN at pH 7.4 value for this compound: CCCCN1CCCCC1C(=O)Nc1c(C)cccc1C (stereo not drawn)
16.63

* * *

# Test Details: Percent protonated (RNH+) and unprotonated (RN) amine form of local anesthetics as a function of pH
# Format: physicochemical
# Condition Info: pH 6.5, unprotonated form
Readout Kind: % RN at pH 6.5 (%)
Write it as a number; the unit % goes unstated.

// solved cases for % RN at pH 6.5 follow
[[record]]
compound = "CCCCNc1ccc(C(=O)OCCN(C)C)cc1"
value_measured = 1.96

[[record]]
compound = "CCN(CC)CC(=O)Nc1c(C)cccc1C"
value_measured = 3.83


Indicate the recorded % RN at pH 6.5 value for this compound: CCOC(=O)c1ccc(N)cc1
99.97

Indicate the recorded % RN at pH 6.5 value for this compound: CCCNC(C)C(=O)Nc1c(C)csc1C(=O)OC (stereo not drawn)
4.77

Indicate the recorded % RN at pH 6.5 value for this compound: Cc1cccc(C)c1NC(=O)C1CCCCN1C (stereo not drawn) [Mepivacaine]
7.36

Indicate the recorded % RN at pH 6.5 value for this compound: CCCNC(C)C(=O)Nc1ccccc1C (stereo not drawn)
3.83

* * *

# Test Details: Percent protonated (RNH+) and unprotonated (RN) amine form of local anesthetics as a function of pH
# Format: physicochemical
# Condition Info: pH 7.4, protonated form
Listing of entries alongside the reported % RNH(+) at pH 7.4.
Write it as a number; the unit % goes unstated.

// solved cases for % RNH(+) at pH 7.4 follow
[[record]]
compound = "CCCN1CCCC[C@H]1C(=O)Nc1c(C)cccc1C"
readout_kind = "% RNH(+) at pH 7.4"
value_measured = 83.37

[[record]]
compound = "CCN(CC)CCOC(=O)c1ccc(N)cc1"
readout_kind = "% RNH(+) at pH 7.4"
value_measured = 96.93


Indicate the recorded % RNH(+) at pH 7.4 value for this compound: CCCNC(C)C(=O)Nc1c(C)csc1C(=O)OC (stereo not drawn)
71.53

Indicate the recorded % RNH(+) at pH 7.4 value for this compound: CCCCOc1cc(C(=O)NCCN(CC)CC)c2ccccc2n1
96.17

Indicate the recorded % RNH(+) at pH 7.4 value for this compound: CCN(CC)CCOC(=O)c1ccc(N)cc1Cl
95.23

Indicate the recorded % RNH(+) at pH 7.4 value for this compound: CCCNC(C)C(=O)Nc1ccccc1C (stereo not drawn)
75.97

Indicate the recorded % RNH(+) at pH 7.4 value for this compound: CCCN(CC)C(CC)C(=O)Nc1c(C)cccc1C (stereo not drawn)
66.61

Indicate the recorded % RNH(+) at pH 7.4 value for this compound: CCN(CC)CC(=O)Nc1c(C)cccc1C
75.97

Indicate the recorded % RNH(+) at pH 7.4 value for this compound: Cc1cccc(C)c1NC(=O)C1CCCCN1C (stereo not drawn) [Mepivacaine]
61.31

Indicate the recorded % RNH(+) at pH 7.4 value for this compound: CCCCN1CCCCC1C(=O)Nc1c(C)cccc1C (stereo not drawn)
83.37

Indicate the recorded % RNH(+) at pH 7.4 value for this compound: CCCCNc1ccc(C(=O)OCCN(C)C)cc1
86.32

Indicate the recorded % RNH(+) at pH 7.4 value for this compound: CCOC(=O)c1ccc(N)cc1
0.00

Provenance of the data: patent US20120029085A1
